Test system: SK-MEL-5 melanoma
Assay Procedure: NCI-60 one-dose screen, 48 h (100 = growth as untreated, 0 = no growth, -100 = all killed)
Assay Setup: 10 µM
Compounds without any hit were thinned out: in the full panel of roughly 83,000, 20% have a hit.
Listed next: entries and their corresponding growth.
Report as a plain number; the unit % is understood.

{"columns": ["Compound", "Endpoint Result"],
 "data": [
  ["COc1cc(Cn2c(C(F)(F)F)cc3c(Cl)ncnc32)ccn1", -20.4],
  ["C=C(C)[C@@H]1CC[C@]2(C)[C@H](CC=C3[C@@H]4CC(C)(C)CC[C@]4(C(=O)N4CCOCC4)CC[C@]32C)[C@@]1(C)CCCN", -96.5],
  ["Nc1nnc(-c2c[nH]c3ncccc23)c(-c2c[nH]c3ccc(Br)cc23)n1", -33.5],
  ["CC1=C2C(=C[C@@](C)(CO)[C@@H]2O)/C(=N\\N)[C@](C)(O)C12CC2", -61.1],
  ["O=C(NO)c1ccc(CNC(=O)[C@H]2Cc3c([nH]c4ccccc34)[C@H](c3ccccc3)N2)cc1", 8.18],
  ["COc1ccccc1C(=O)NNC(=O)CSc1nc2c(c(=O)[nH]1)CCCC2", 99.3],
  ["C=C1CCC2C3(C)COC(c4c(F)cccc4F)OC3CCC2(C)C1C/C=C1/C(=O)OCC1O (centres undefined)", -65.5],
  ["O=c1oc2ccc(-c3ccc(F)cc3F)cc2c(=O)n1-c1ccc(F)c(Cl)c1", -91.6]
]}

Attention now shifts to the item below.
Data request: Can you share its growth? I mean this compound: Nc1n[nH]c2cccc(C#Cc3cccc(NC(=O)Nc4cc(C(F)(F)F)cc(C(F)(F)F)c4)c3)c12
Data returned: -100

Sourced from PubChem BioAssay (NCI)
